Test: Plasma PK and tissue distribution after oral dosing of INTERMEDIATE C4 (3 mg/kg)
Assay type: in vivo
Conditions: male, Wistar Han, rat, liver, po, 3 mg/kg, PO 3 mg/kg INTERMEDIATE C4, male Wistar Han rat, 4 hr; read-out: liver Concentration Mean
QUANTITY_NAME: concentration at 4 h
Respond with the figure and its unit, in that order.

Incoming: Determine from records and report concentration at 4 h for CC(C)CN(c1ccc([C@H](C)CC(=O)O)cc1Nc1cnc(Cl)cn1)C1CCOCC1 [intermediate C4]
Outgoing: 883 ng/g

* * *

Assay: Plasma PK and tissue distribution after oral dosing of prodrug EXAMPLE 7 (5 mg/kg)
Assay type: in vivo
Conditions: male, Wistar Han, rat, spleen, po, 5 mg/kg, PO 5 mg/kg EXAMPLE 7 (prodrug), 1 hr, analyte as labelled, read-out: spleen Concentration individual
QUANTITY_NAME: concentration at 1 h (ng/g)
Field: numeric (ng/g). Do not append units.

Incoming: Retrieve concentration at 1 h measured for CC(C)CN(c1ccc([C@H](C)CC(=O)O)cc1Nc1cnc(Cl)cn1)C1CCOCC1 [intermediate C4] and print it.
Outgoing: 175
